# target_or_system: HLA-A*24 (human)
# measurement_protocol: UV-ligand exchange ELISA
Please provide measured peptide exchange yield for the entries that follow.

Lookup: GET /values?readout=peptide exchange yield&item= VYEDQVGKF [peptide SEQ ID No 170]
Found: 20 to 49%

Lookup: Same thing, different binder: YYEVHKELF [peptide SEQ ID No 175]
Found: > 75%

Lookup: Same thing, different binder: MYDSYWRQF [peptide SEQ ID No 179]
Found: > 75%

Lookup: Same thing, different binder: RYFKGLVF [peptide SEQ ID No 188]
Found: 50 to 75%

Lookup: Same thing, different binder: LYLDIINLF [peptide SEQ ID No 181]
Found: > 75%

Lookup: Same thing, different binder: VYVSDIQEL [peptide SEQ ID No 288]
Found: 50 to 75%
